Test system: FD (familial dysautomonia) IKBKAP minigene, exon 20 inclusion, in HEK293T cells
Experiment: Primary splicing assay (FD IKBKAP minigene, Firefly/Renilla luciferase reporter in HEK293T)
Type: cell-based, human
Conditions: Homo sapiens, HEK-293T; max efficacy in Primary Assay; Firefly/Renilla ratio, kinetin and DMSO as positive and negative controls; 24 hours of treatment; read-out: Emax (%)
Procedure: As used herein, the expression “ECk” refers to the compound concentration at which the maximum kinetin efficacy (200 μM) is reached. […]
Everything with Emax lower than 40% is f; everything else, including exactly 40%, is t.

Recorded results for 5 compounds are shown here.
Cc1noc(-c2cc3c(NCc4ccco4)nc(Cl)nc3[nH]2)n1
f
C[C@@H](Nc1ncnc2[nH]cnc12)c1ccco1
t
Cc1cc(CNc2ncnc3[nH]cnc23)on1
f
Clc1nc(NCc2cccnn2)c2cc[nH]c2n1
f
Cc1[nH]c2nc(Cl)nc(NCc3ccncc3)c2c1F
f

// query Kindly determine if Emax recorded for "CC(C)(C)OC(=O)N1CC(COc2nc3c(NCc4nccs4)nc(Cl)nc3[nH]2)C1" is above or exactly 40%.
// result t

// query Kindly determine if Emax recorded for "Clc1cc(NCc2ccco2)c2nc[nH]c2n1" is above or exactly 40%.
// result t

// query Kindly determine if Emax recorded for "CN(Cc1nccs1)c1nc(Cl)nc2[nH]ccc12" is above or exactly 40%.
// result t

// query Kindly determine if Emax recorded for "COc1nc2c(NCc3nccs3)nc(Cl)nc2n1CCO" is above or exactly 40%.
// result t

// query Kindly determine if Emax recorded for "c1coc(CNc2ncnc3[nH]c(C4CC4)nc23)c1" is above or exactly 40%.
// result t
